Parameter Ki: see the listing below.
Molecular target: T1, Myc-tagged Mcl-1 (human, UniProt Q07820 1-350)
T1 chain: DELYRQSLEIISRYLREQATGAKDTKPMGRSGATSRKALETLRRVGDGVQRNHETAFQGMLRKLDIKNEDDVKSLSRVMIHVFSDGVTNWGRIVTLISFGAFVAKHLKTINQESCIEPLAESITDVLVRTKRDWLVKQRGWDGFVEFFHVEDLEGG
Assay: FP
Form entry: value (nM) — number only.

The examples below pair each entry with its known result.
Ac-QWVREIAAGLRRAADDVNAQVER-NH2 (designed binder) [FS2]; 3200
Ac-QWIREIAAGLRRFADILNAQVER-NH2 (designed binder) [FS3]; 550

For the next question, use this binder.
### Prompt Tell me its Ki given Ac-QWAREIGAQLRRMADDLNAQYER-NH2 [PUMA BH3 peptide (23 residues)] as the entry.
### Response 2.4

# credit: paper PMC5464773
